This listing pairs molecules with measured IC50.
Molecular target: hGYS1 enzyme (recombinant hGYS1/GN1 protein) (Homo sapiens (Human))
Assay: GYS1 coupled enzyme assay (PK/LDH)
Conditions: hGYS1/GN1 50 nM, UDP-Glucose 0.8 mM, G6P 1 mM; geometric mean of at least 2 runs
Form entry: value (nM) — number only.

Field: example entries. Status: answers known.
molecule="CC(C)c1ccc([C@@H](NC(=O)[C@@H]2CC[C@H](C)N2C(=O)Cc2cnn[nH]2)c2ccccc2)nc1 [Compound 280]" experimental_value=149
molecule="CC(C)c1ccc([C@@H](NC(=O)[C@@H]2C[C@@H](F)CN2C(=O)Cc2cnn[nH]2)c2ccccc2)cc1C(F)F [Compound 679]" experimental_value=577
molecule="CC(C)c1ccc([C@@H](NC(=O)[C@@H]2C[C@@H](F)CN2C(=O)Cc2ccnn2C)c2ccccc2)cc1F [Compound 337]" experimental_value=27

Next, consider the following molecule.
Give IC50 only, for CC(C)c1ccc([C@@H](NC(=O)[C@@H]2C[C@@H](F)CN2C(=O)Cn2nncc2CN(C)C)c2ccccc2)cc1 [Compound 241] , using hGYS1 enzyme (recombinant hGYS1/GN1 protein) (Homo sapiens (Human)) data.
82

---

Molecular target: hGYS1 enzyme (recombinant hGYS1/GN1 protein) (Homo sapiens (Human), UniProt P13807)
Sequence (P13807 whole entry): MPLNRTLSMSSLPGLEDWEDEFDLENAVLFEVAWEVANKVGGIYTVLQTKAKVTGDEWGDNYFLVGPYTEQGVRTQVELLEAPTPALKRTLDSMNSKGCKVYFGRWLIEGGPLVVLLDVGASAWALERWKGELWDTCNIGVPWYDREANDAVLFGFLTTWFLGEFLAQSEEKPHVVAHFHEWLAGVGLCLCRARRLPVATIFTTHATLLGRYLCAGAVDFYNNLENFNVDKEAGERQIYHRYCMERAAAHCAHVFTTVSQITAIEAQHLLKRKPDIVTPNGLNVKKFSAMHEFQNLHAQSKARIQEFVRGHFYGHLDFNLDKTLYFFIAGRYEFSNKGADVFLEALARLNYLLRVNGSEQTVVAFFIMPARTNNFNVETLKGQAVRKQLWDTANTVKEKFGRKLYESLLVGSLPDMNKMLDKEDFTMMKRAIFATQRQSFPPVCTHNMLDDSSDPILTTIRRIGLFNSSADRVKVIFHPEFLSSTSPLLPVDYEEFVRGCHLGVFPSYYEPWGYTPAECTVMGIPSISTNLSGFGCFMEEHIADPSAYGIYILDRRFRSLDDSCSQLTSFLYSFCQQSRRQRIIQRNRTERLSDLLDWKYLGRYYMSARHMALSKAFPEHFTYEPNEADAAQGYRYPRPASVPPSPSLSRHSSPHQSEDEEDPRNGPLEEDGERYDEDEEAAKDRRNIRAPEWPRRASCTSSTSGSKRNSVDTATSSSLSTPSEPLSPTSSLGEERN
Sequence (P46976 whole entry partner): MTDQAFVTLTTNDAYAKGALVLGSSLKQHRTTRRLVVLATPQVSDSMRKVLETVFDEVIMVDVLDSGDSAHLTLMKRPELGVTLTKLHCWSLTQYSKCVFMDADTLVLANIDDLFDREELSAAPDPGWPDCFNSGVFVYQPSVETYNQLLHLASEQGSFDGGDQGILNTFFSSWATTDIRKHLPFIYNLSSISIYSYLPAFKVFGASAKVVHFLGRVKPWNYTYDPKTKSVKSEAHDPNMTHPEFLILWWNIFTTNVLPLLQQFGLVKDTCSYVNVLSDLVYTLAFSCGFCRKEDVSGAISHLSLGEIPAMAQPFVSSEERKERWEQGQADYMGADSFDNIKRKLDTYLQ
Test: GYS1 coupled enzyme assay (PK/LDH)
Format: biochemical
Conditions: hGYS1/GN1 50 nM, UDP-Glucose 0.8 mM, G6P 1 mM; geometric mean of at least 2 runs
Entries whose IC50 is below 10 nM take met; entries at or above 10 nM take not met.

Field: example entries. Status: answers known.
molecule="CC(C)c1ccc([C@@H](NC(=O)[C@@H]2C[C@@H](F)CN2C(=O)Cc2n[nH]c(=O)n2C)c2ccccc2)nc1F [Compound 398]" group_label=met
molecule="CCn1ncc(NCC(=O)N2C[C@H](F)C[C@H]2C(=O)N[C@@H](c2ccccc2)c2ccc(C3CC3)c(F)c2)n1 [Compound 470]" group_label="not met"
molecule="CC(C)c1ccc([C@@H](NC(=O)[C@@H]2C[C@@H](F)CN2C(=O)CNC(=O)N2CCNCC2)c2ccccc2)cc1F [Compound 365]" group_label=met
molecule="CC(C)c1ccc([C@@H](NC(=O)[C@@H]2C[C@@H](F)CN2C(=O)C(C)(C)c2ccccn2)c2ccccc2)cc1 [Compound 92]" group_label="not met"
molecule="CC(C)c1ccc([C@@H](NC(=O)[C@@H]2C[C@@H](F)CN2C(=O)Cc2ccc(F)cn2)c2ccccc2)cc1 [Compound 36]" group_label="not met"

Does the reported IC50 of the following molecule sit strictly below 10 nM? Cc1cn(CC(=O)N2C[C@H](F)C[C@H]2C(=O)N[C@@H](c2ccccc2)c2ccc(C(C)C)cc2)c(=O)[nH]c1=O [Compound 126]
not met

Does the reported IC50 of the following molecule sit strictly below 10 nM? CC(C)c1ccc([C@@H](NC(=O)[C@@H]2C[C@@H](F)CN2C(=O)CNC(=O)N2CCC2)c2ccccc2)nc1F [Compound 399]
met

Does the reported IC50 of the following molecule sit strictly below 10 nM? CC(C)c1ccc([C@@H](NC(=O)[C@@H]2C[C@@H](F)CN2C(=O)Cc2[nH]nnc2C(F)(F)F)c2ccccc2)cc1F [Compound 368]
met

Does the reported IC50 of the following molecule sit strictly below 10 nM? CC1(c2ccc([C@@H](NC(=O)[C@@H]3C[C@@H](F)CN3C(=O)CNC(=O)N3CCOCC3)c3ccccc3)cc2F)CC1 [Compound 565]
not met

Does the reported IC50 of the following molecule sit strictly below 10 nM? CC(C)c1ccc([C@@H](NC(=O)[C@@H]2C[C@@H](F)CN2C(=O)Cc2[nH]nnc2N(C)C)c2ccccc2)cc1F [Compound 775]
not met

Does the reported IC50 of the following molecule sit strictly below 10 nM? CC(C)c1ccc([C@@H](NC(=O)[C@@H]2C[C@@H](F)CN2C(=O)Cn2cc(N(C)C)nn2)c2ccccc2)nc1 [Compound 260]
not met

Does the reported IC50 of the following molecule sit strictly below 10 nM? CC(C)c1ccc([C@@H](NC(=O)[C@@H]2C[C@@H](F)CN2C(=O)CNC(=O)N2CCN(C)CC2)c2ccccc2)nc1 [Compound 283]
not met

Does the reported IC50 of the following molecule sit strictly below 10 nM? CCn1cc(N(C)CC(=O)N2C[C@H](F)C[C@H]2C(=O)N[C@@H](c2ccccc2)c2ccc(C3CC3)c(F)c2)nn1 [Compound 473]
not met

---

Target: hGYS2 enzyme (recombinant hGYS2/GN1 protein) (Homo sapiens (Human))
Experiment: GYS2 coupled enzyme assay (PK/LDH)
Conditions: geometric mean of at least 2 assay runs on separate days, read-out: Avg_IC50
ENDPOINT: IC50

compound=CC1(c2ccc([C@@H](NC(=O)[C@@H]3C[C@@H](F)CN3C(=O)CN3CCNCC3=O)c3ccccc3)cc2F)CC1 experimental_value="> 100 µM"

Determine its reported IC50: Cc1cn(CC(=O)N2C[C@H](F)C[C@H]2C(=O)N[C@@H](c2ccccc2)c2ccc(C(C)C)c(F)n2)c(=O)n(C)c1=O (relative stereo) [Compound 777]
> 100 µM

Determine its reported IC50: Cc1nnc(CC(=O)N2C[C@H](F)C[C@H]2C(=O)N[C@@H](c2ccccc2)c2ccc(C(C)C)c(F)c2)o1
> 100 µM

---

This listing pairs compounds with measured IC50.
Target: hGYS2 enzyme (recombinant hGYS2/GN1 protein) (Homo sapiens (Human), UniProt P54840)
Sequence (P54840 whole entry, one chain of several): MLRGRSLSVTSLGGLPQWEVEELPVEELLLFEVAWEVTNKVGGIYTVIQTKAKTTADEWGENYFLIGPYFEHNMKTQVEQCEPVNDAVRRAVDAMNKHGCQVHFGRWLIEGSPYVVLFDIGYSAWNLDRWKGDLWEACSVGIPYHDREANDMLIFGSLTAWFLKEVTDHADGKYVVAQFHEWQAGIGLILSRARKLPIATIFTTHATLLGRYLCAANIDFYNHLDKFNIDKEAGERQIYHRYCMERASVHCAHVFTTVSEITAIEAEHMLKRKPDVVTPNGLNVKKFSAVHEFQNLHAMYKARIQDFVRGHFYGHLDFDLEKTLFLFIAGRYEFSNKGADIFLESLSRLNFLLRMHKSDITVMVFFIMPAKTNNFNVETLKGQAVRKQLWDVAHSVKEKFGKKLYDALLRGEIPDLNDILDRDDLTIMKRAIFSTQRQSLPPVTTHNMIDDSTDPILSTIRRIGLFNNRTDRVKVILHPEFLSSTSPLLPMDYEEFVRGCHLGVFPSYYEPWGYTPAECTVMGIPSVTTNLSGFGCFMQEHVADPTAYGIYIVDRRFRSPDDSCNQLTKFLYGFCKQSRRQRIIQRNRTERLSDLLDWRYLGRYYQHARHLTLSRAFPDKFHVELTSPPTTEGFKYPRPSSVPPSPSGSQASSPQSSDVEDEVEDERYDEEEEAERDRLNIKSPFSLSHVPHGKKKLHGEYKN
Experiment: GYS2 coupled enzyme assay (PK/LDH)
Conditions: geometric mean of at least 2 assay runs on separate days, read-out: Avg_IC50
Description: The GYS2 coupled enzyme assay is a kinetic biochemical assay that indirectly quantifies the rate of glycogen synthesis by coupling the conversion of GYS2 substrate UDP-glucose into UDP with downstream enzymatic reactions. UDP is released from UDP-glucose as glucose monomers are linked into the growing glycogen strand by GYS2. […] Oxidation of NADH to NAD+ can be measured continuously with a plate reader by quantifying the decrease in NADH absorbance at 340 nm over time. […]

Field: example entries. Status: answers known.
compound_string=Cn1c(CC(=O)N2C[C@H](F)C[C@H]2C(=O)N[C@@H](c2ccccc2)c2ccc(C3CC3)c(F)n2)n[nH]c1=O assay_system="hGYS2 enzyme (recombinant hGYS2/GN1 protein) (Homo sapiens (Human), UniProt P54840)" experimental_value="> 100 µM"
compound_string=Cc1cn(CC(=O)N2C[C@H](F)C[C@H]2C(=O)N[C@@H](c2ccccc2)c2ccc(C3CC(F)(F)C3)c(F)c2)c(=O)[nH]c1=O assay_system="hGYS2 enzyme (recombinant hGYS2/GN1 protein) (Homo sapiens (Human), UniProt P54840)" experimental_value="> 100 µM"

Next, consider the following compound.
Determine its reported IC50: Cc1coc(CC(=O)N2C[C@H](F)C[C@H]2C(=O)N[C@@H](c2ccccc2)c2ccc(C3CC(F)(F)C3)c(F)c2)n1
> 100 µM

---

This listing pairs compounds with measured pIC50.
Molecular target: hGYS2 enzyme (recombinant hGYS2/GN1 protein) (Homo sapiens (Human), UniProt P54840)
Test: GYS2 coupled enzyme assay (PK/LDH)
Conditions: geometric mean of at least 2 assay runs on separate days, read-out: Avg_IC50
Text: The GYS2 coupled enzyme assay is a kinetic biochemical assay that indirectly quantifies the rate of glycogen synthesis by coupling the conversion of GYS2 substrate UDP-glucose into UDP with downstream enzymatic reactions. UDP is released from UDP-glucose as glucose monomers are linked into the growing glycogen strand by GYS2. […] Oxidation of NADH to NAD+ can be measured continuously with a plate reader by quantifying the decrease in NADH absorbance at 340 nm over time. […]
pIC50: −log10 of the molar value.

compound="Cc1cc(C(NC(=O)[C@@H]2C[C@@H](F)CN2C(=O)Cc2cnn[nH]2)c2ccccc2)ncc1C(C)C (single isomer, unassigned) [Compound 604]" assay_system="hGYS2 enzyme (recombinant hGYS2/GN1 protein) (Homo sapiens (Human), UniProt P54840)" endpoint=pIC50 experimental_value="< 4.00"
compound="CC(C)c1ccc([C@@H](NC(=O)[C@@H]2C[C@@H](F)CN2C(=O)Cc2cnn(C)c2)c2ccccc2)cc1F [Compound 355]" assay_system="hGYS2 enzyme (recombinant hGYS2/GN1 protein) (Homo sapiens (Human), UniProt P54840)" endpoint=pIC50 experimental_value="< 4.00"
compound="O=C(N[C@@H](c1ccccc1)c1ccc(C2CC2)c(F)c1)[C@@H]1C[C@@H](F)CN1C(=O)Cc1cn[nH]c1 [Compound 437]" assay_system="hGYS2 enzyme (recombinant hGYS2/GN1 protein) (Homo sapiens (Human), UniProt P54840)" endpoint=pIC50 experimental_value="< 4.00"
compound="CC(C)c1ccc([C@@H](NC(=O)[C@@H]2C[C@@H](F)CN2C(=O)Cn2cc(N(C)C)nn2)c2ccccc2)nc1 [Compound 260]" assay_system="hGYS2 enzyme (recombinant hGYS2/GN1 protein) (Homo sapiens (Human), UniProt P54840)" endpoint=pIC50 experimental_value="< 4.00"
compound="CC1(c2ccc([C@@H](NC(=O)[C@@H]3C[C@@H](F)CN3C(=O)COC(=O)N3CCN(CC(F)(F)F)CC3)c3ccccc3)cc2F)CC1 [Compound 585]" assay_system="hGYS2 enzyme (recombinant hGYS2/GN1 protein) (Homo sapiens (Human), UniProt P54840)" endpoint=pIC50 experimental_value="< 4.00"

Next, consider the following compound.
Determine its reported pIC50: CCC(C)c1ccc(C(NC(=O)[C@@H]2C[C@@H](F)CN2C(=O)Cc2cnn[nH]2)c2ccccc2)cc1F (single isomer, unassigned) [Compound 676]
< 4.00

Hello, the source for this data is patent US11814367B2, in case you need it.
